Below is a list of entries, each paired with its recorded relative viability value.
# Test system: RERF-LC-KJ
# assay_remarks: relative viability (nuclei count vs DMSO), 5 days (fraction); higher = more cells survive
# reported_conditions: first compound 0.003162 µM
// response body must contain only the number

molecule	relative viability
Cc1cn(-c2cc(NC(=O)c3ccc(C)c(Nc4nccc(-c5cccnc5)n4)c3)cc(C(F)(F)F)c2)cn1 [Nilotinib] + NC(=O)Nc1cc(-c2cccc(F)c2)sc1C(=O)N[C@H]1CCCNC1 [AZD7762] (partner 0.2 µM)	1.02

Let us move to another entry and its relative viability.
Query string: Answer with the recorded relative viability of Cc1cn(-c2cc(NC(=O)c3ccc(C)c(Nc4nccc(-c5cccnc5)n4)c3)cc(C(F)(F)F)c2)cn1 [Nilotinib] + C[C@@H](Oc1cc(-c2cnn(C3CCNCC3)c2)cnc1N)c1c(Cl)ccc(F)c1Cl [Crizotinib] (partner 1 µM) only.
Result string: 0.891

---

Below is a list of entries, each paired with its recorded relative viability value.
# Test system: NCI-H596
# assay_remarks: relative viability (nuclei count vs DMSO), 5 days (fraction); higher = more cells survive
# reported_conditions: first compound 0.1 µM
// response body must contain only the number

Some compounds with recorded relative viability:
compound	relative viability
Cc1cn(-c2cc(NC(=O)c3ccc(C)c(Nc4nccc(-c5cccnc5)n4)c3)cc(C(F)(F)F)c2)cn1 [Nilotinib] + COc1cc2c(Oc3ccc(NC(=O)C4(C(=O)Nc5ccc(F)cc5)CC4)cc3F)ccnc2cc1OCCCN1CCOCC1 [Foretinib] (partner 0.25 µM)	0.601
Cc1cn(-c2cc(NC(=O)c3ccc(C)c(Nc4nccc(-c5cccnc5)n4)c3)cc(C(F)(F)F)c2)cn1 [Nilotinib] + CS(=O)(=O)CCNCc1ccc(-c2ccc3ncnc(Nc4ccc(OCc5cccc(F)c5)c(Cl)c4)c3c2)o1 [Lapatinib] (partner 2 µM)	0.88
Cc1cn(-c2cc(NC(=O)c3ccc(C)c(Nc4nccc(-c5cccnc5)n4)c3)cc(C(F)(F)F)c2)cn1 [Nilotinib] + CC(=O)Nc1cccc(-n2c(=O)n(C3CC3)c(=O)c3c(Nc4ccc(I)cc4F)n(C)c(=O)c(C)c32)c1 [Trametinib] (partner 0.02 µM)	0.712

Let us move to another entry and its relative viability.
Query string: Answer with the recorded relative viability of Cc1cn(-c2cc(NC(=O)c3ccc(C)c(Nc4nccc(-c5cccnc5)n4)c3)cc(C(F)(F)F)c2)cn1 [Nilotinib] + CC(C)C[C@H](NC(=O)[C@H](Cc1ccccc1)NC(=O)c1cnccn1)B(O)O [Bortezomib] (partner 0.002 µM) only.
Result string: 0.96

---

# Tested on: NCI-H2170
# assay_remarks: relative viability (nuclei count vs DMSO), 5 days (fraction); higher = more cells survive
# reported_conditions: first compound 0.253 µM
Below is a list of entries, each paired with its recorded relative viability value.
// response body must contain only the number

Some compounds with recorded relative viability:
compound	endpoint_result
Nc1cccc2c1CN(C1CCC(=O)NC1=O)C2=O (stereo not given) [Lenalidomide] + Cc1nc(Nc2ncc(C(=O)Nc3c(C)cccc3Cl)s2)cc(N2CCN(CCO)CC2)n1 [Dasatinib] (partner 0.075 µM)	0.547
Nc1cccc2c1CN(C1CCC(=O)NC1=O)C2=O (stereo not given) [Lenalidomide] + Nc1ncn([C@H]2C[C@H](O)[C@@H](CO)O2)c(=O)n1 [Decitabine] (partner 2 µM)	0.49
Nc1cccc2c1CN(C1CCC(=O)NC1=O)C2=O (stereo not given) [Lenalidomide] + COc1cc2c(Oc3ccc(NC(=O)C4(C(=O)Nc5ccc(F)cc5)CC4)cc3F)ccnc2cc1OCCCN1CCOCC1 [Foretinib] (partner 0.25 µM)	0.972
Nc1cccc2c1CN(C1CCC(=O)NC1=O)C2=O (stereo not given) [Lenalidomide] + N=C(N)NC(=N)NCCc1ccccc1 [Phenformin] (partner 250 µM)	0.47

Let us move to another entry and its relative viability.
Query string: System NCI-H2170. Read-out relative viability. Item Nc1cccc2c1CN(C1CCC(=O)NC1=O)C2=O (stereo not given) [Lenalidomide] + C[C@@H](Oc1cc(-c2cnn(C3CCNCC3)c2)cnc1N)c1c(Cl)ccc(F)c1Cl [Crizotinib] (partner 1 µM) . Report value.
Result string: 1.21
